src = patent US20160257651A1

- Test system: S. aureus Mu50
- protocol: microbe, parasite or virus in culture
- Type: cell-based, Staphylococcus aureus
- details: MIC for S. aureus Mu50 / MIC for S. aureus FDA209P
- Method: Then, the cell suspension was diluted 500 times with CAMHB mentioned above.
metric: MIC ratio (Mu50 MIC/FDA209P MIC)

compound	test target	measured result
CC(=O)N1COc2c1ccc1c(CO)cc(=O)n(C)c21 [J-125a]	S. aureus Mu50	0.125
CC1COc2c(-c3ccc(O)cc3)c(F)cc3c(CO)cc(=O)n1c23 (centres unmarked)	S. aureus Mu50	1
Cc1cc2c(CO)cc(=O)n(C3CC3)c2cc1-c1ccc(O)cc1	S. aureus Mu50	0.25
Cc1cc(=O)n(C)c2cc(-c3ccc(O)cc3)ccc12 [J-121Me]	S. aureus Mu50	0.0313

---

- System: S. aureus Mu50
- protocol: microbe, parasite or virus in culture
- Assay type: cell-based, Staphylococcus aureus
- details: MIC for S. aureus Mu50 / MIC for S. aureus FDA209P

molecule	MIC ratio (Mu50 MIC/FDA209P MIC)
O=c1cc(CO)c2cc(F)c(N3CCC(O)CC3)cc2n1C1CC1	0.5
CN1CCN(c2cc3c(cc2F)c(CO)cc(=O)n3C2CC2)CC1	1
CC(=O)OCc1cc(=O)n(C2CC2)c2cc(-c3ccc(O)cc3)c(F)cc12	0.0625
CCn1c(=O)cc(CO)c2cc(F)c(-c3ccc(O)cc3)cc21 [J-131E]	0.25
Cn1c(=O)cc(CO)c2ccc3c(c21)OCO3	0.125
CCc1cc(=O)n(C2CC2)c2cc(-c3ccc(O)cc3)c(F)cc12	0.0625
CCC(=O)OCc1cc(=O)n(C2CC2)c2cc(-c3ccc(N)cc3)c(F)cc12	1
O=c1cc(CO)c2ccc(-c3ccc(O)cc3)cc2n1C1CC1 [J-121Cp]	0.5
Cn1c(=O)cc(CO)c2cc(F)c(-c3ccc(O)cc3)cc21	0.25
O=c1cc(CO)c2ccc(-c3ccc(O)cc3)c(F)c2n1C1CC1	0.5
COc1c(-c2ccc(O)cc2)ccc2c(CO)cc(=O)n(C3CC3)c12	0.5
Nc1ccc(-c2cc3c(cc2F)c(CO)cc(=O)n3C2CC2)cc1 [J-132CP]	1
Nc1ccc(-c2cc3c(cc2F)c(COC(=O)CC(=O)O)cc(=O)n3C2CC2)cc1	1
CC1NCc2cc(-c3cc4c(cc3F)c(CO)cc(=O)n4C3CC3)ccc21 (centres unmarked)	2
CCn1cc(C(=O)O)c(=O)c2cc(F)c(N3CCNCC3)cc21	512
C[C@H]1COc2c(N3CCN(C)CC3)c(F)cc3c(=O)c(C(=O)O)cn1c23	≧128
C[C@@H]1CN(c2c(F)c(N)c3c(=O)c(C(=O)O)cn(C4CC4)c3c2F)C[C@H](C)N1	≧256
O=c1cc(CO)c2ccc(-c3ccc(O)cc3)c3c2n1CO3	0.125
NC1CCN(c2nc3c(cc2F)c(=O)c(C(=O)O)cn3-c2ccc(F)cc2F)C1 (centres unmarked)	≧2048
CC1COc2c(N3CCN(C)CC3)c(F)cc3c(=O)c(C(=O)O)cn1c23 (centres unmarked)	128
Cn1c(=O)cc(CO)c2cc(F)c(-c3ccc(N)cc3)cc21	0.0625
NCc1cc(=O)n(C2CC2)c2cc(-c3ccc(O)cc3)c(F)cc12	1
Nc1ccc(-c2cc3c(cc2F)c(COC(=O)CCC(=O)O)cc(=O)n3C2CC2)cc1	0.25

---

Each entry below carries its recorded MIC.
- Tested on: E. faecium RPR10
- protocol: MIC against Enterococcus bacteria
- Format: cell-based
- details: E. faecium RPR10, read-out: MIC

compound	MIC
CCn1cc(C(=O)O)c(=O)c2cc(F)c(N3CCNCC3)cc21	2 µg/mL
C[C@@H]1CN(c2c(F)c(N)c3c(=O)c(C(=O)O)cn(C4CC4)c3c2F)C[C@H](C)N1	0.13 µg/mL
C[C@H]1COc2c(N3CCN(C)CC3)c(F)cc3c(=O)c(C(=O)O)cn1c23	1 µg/mL
CC1COc2c(N3CCN(C)CC3)c(F)cc3c(=O)c(C(=O)O)cn1c23 (centres unmarked)	2 µg/mL
NC1CCN(c2nc3c(cc2F)c(=O)c(C(=O)O)cn3-c2ccc(F)cc2F)C1 (centres unmarked)	4 µg/mL

---

- Test system: S. aureus Mu50
- protocol: microbe, parasite or virus in culture
- Format: cell-based, Staphylococcus aureus
- details: S. aureus Mu50, quinolone-resistant MRSA; ParC S80F, GyrA S84L

compound	MIC, µg/mL
Cn1c(=O)cc(CO)c2cc(F)c(-c3ccc(N)cc3)cc21 [J-132]	8
Nc1ccc(-c2cc3c(cc2F)c(CO)cc(=O)n3C2CC2)cc1 [J-166]	1
Nc1ccc(-c2cc3c(cc2F)c(COC(=O)CC(=O)O)cc(=O)n3C2CC2)cc1 [J-135]	8
Nc1ccc(-c2cc3c(cc2F)c(COC(=O)CCC(=O)O)cc(=O)n3C2CC2)cc1 [J-136]	8
CCn1c(=O)cc(CO)c2cc(F)c(-c3ccc(O)cc3)cc21 [J-131E]	0.5

---

- Test system: S. aureus MS5952 two-step mutant
- protocol: MIC against stepwise QRDR mutants
- Format: cell-based
- details: Staphylococcus aureus
metric: MIC

compound	measured result
NC1CCN(c2nc3c(cc2F)c(=O)c(C(=O)O)cn3-c2ccc(F)cc2F)C1 (stereo not shown)	8 µg/mL
O=c1cc(CO)c2cc(F)c(-c3ccc(O)cc3)cc2n1C1CC1 [J-131CP]	0.125 µg/mL
C[C@@H]1CN(c2c(F)c(N)c3c(=O)c(C(=O)O)cn(C4CC4)c3c2F)C[C@H](C)N1	16 µg/mL
CCn1cc(C(=O)O)c(=O)c2cc(F)c(N3CCNCC3)cc21	16 µg/mL

---

Each entry below carries its recorded MIC.
- System: S. pneumoniae KBSP04
- protocol: MIC against pneumococcus, CAMHB with 5 mass % LHB
- Format: cell-based
- details: Streptococcus pneumoniae; S. pneumoniae KBSP04, PISP; read-out: MIC
- Description: Antibacterial activity of the compound J-131CP against pneumococcus (Streptococcus pneumoniae) was examined by the following method. […] After completion of the culture, whether the bacterium proliferated or not was determined on the basis of visually observed turbidity of the culture in the well, and MIC values (mg/L) of the compound J-131CP and the quinolones for the strains were determined. […]

molecule	MIC [µg/mL]
C[C@H]1COc2c(N3CCN(C)CC3)c(F)cc3c(=O)c(C(=O)O)cn1c23	2
CCn1cc(C(=O)O)c(=O)c2cc(F)c(N3CCNCC3)cc21	4
O=C(O)c1cn(C2CC2)c2cc(N3CCNCC3)c(F)cc2c1=O	0.5
CC1COc2c(N3CCN(C)CC3)c(F)cc3c(=O)c(C(=O)O)cn1c23 (stereo not shown)	0.5

---

- Tested on: S. pneumoniae BCLSP37
- protocol: MIC against pneumococcus, CAMHB with 5 mass % LHB
- Format: cell-based, Streptococcus pneumoniae
- details: Streptococcus pneumoniae, BCLSP37, S. pneumoniae BCLSP37, PSSP, quinolone-resistant; ParC 79Phe, GyrA 85Lys; read-out: MIC
metric: MIC (µg/mL)

molecule	unit annotation	rel	measured result
CC1COc2c(N3CCN(C)CC3)c(F)cc3c(=O)c(C(=O)O)cn1c23 (stereo not drawn) [OFX, ofloxacin]	µg/mL	=	32
NCc1cc(=O)n(C2CC2)c2cc(-c3ccc(O)cc3)c(F)cc12 [J-139]	µg/mL	=	4
O=c1cc(CO)c2cc(F)c(-c3ccc(O)cc3)c(F)c2n1C1CC1 [J-155]	µg/mL	=	1
O=c1cc(CO)c2ccc(-c3ccc(O)cc3)c(F)c2n1C1CC1 [J-154]	µg/mL	=	8
CC1COc2c(-c3ccc(O)cc3)c(F)cc3c(CO)cc(=O)n1c23 (stereo not drawn) [J-149]	µg/mL	=	8
NC1CCN(c2nc3c(cc2F)c(=O)c(C(=O)O)cn3-c2ccc(F)cc2F)C1 (stereo not drawn) [TSX, tosufloxacin]	µg/mL	=	16
COCc1cc(=O)n(C2CC2)c2cc(-c3ccc(O)cc3)c(F)cc12 [J-175]	µg/mL	=	8
CCn1cc(C(=O)O)c(=O)c2cc(F)c(N3CCNCC3)cc21 [NOR, norfloxacin]	µg/mL	=	64
CC1NCc2cc(-c3cc4c(cc3F)c(CO)cc(=O)n4C3CC3)ccc21 (stereo not drawn) [J-144]	µg/mL	=	0.5
O=c1cc(CO)c2cc(F)c(-c3ccc(O)cc3)c(Cl)c2n1C1CC1 [J-161]	µg/mL	=	4
C[C@H]1COc2c(N3CCN(C)CC3)c(F)cc3c(=O)c(C(=O)O)cn1c23 [LVX, levofloxacin]	µg/mL	=	32
O=C(O)c1cn(C2CC2)c2cc(N3CCNCC3)c(F)cc2c1=O [CIP, ciprofloxacin]	µg/mL	>	32
O=c1cc(CO)c2cc(F)c(-c3ccc(O)c(O)c3)cc2n1C1CC1 [J-176]	µg/mL	=	8
C[C@@H]1CN(c2c(F)c(N)c3c(=O)c(C(=O)O)cn(C4CC4)c3c2F)C[C@H](C)N1 [SPX, sparfloxacin]	µg/mL	>	32
O=c1cc(CO)c2cc(F)c(-c3ccc(O)cc3)cc2n1C1CC1 [J-131CP]	µg/mL	=	4
Nc1ccc(-c2cc3c(cc2F)c(CO)cc(=O)n3C2CC2)cc1 [J-132CP]	µg/mL	=	4
NC(=O)c1cc(=O)n(C2CC2)c2cc(-c3ccc(O)cc3)c(F)cc12 [J-173]	µg/mL	=	8
COc1c(-c2ccc(O)cc2)c(F)cc2c(CO)cc(=O)n(C3CC3)c12 [J-156]	µg/mL	=	2
